testSystem: 5-hydroxytryptamine receptor 2B (Homo sapiens, UniProt P41595); note: assay procedure not described here
Sequence (P41595 whole entry): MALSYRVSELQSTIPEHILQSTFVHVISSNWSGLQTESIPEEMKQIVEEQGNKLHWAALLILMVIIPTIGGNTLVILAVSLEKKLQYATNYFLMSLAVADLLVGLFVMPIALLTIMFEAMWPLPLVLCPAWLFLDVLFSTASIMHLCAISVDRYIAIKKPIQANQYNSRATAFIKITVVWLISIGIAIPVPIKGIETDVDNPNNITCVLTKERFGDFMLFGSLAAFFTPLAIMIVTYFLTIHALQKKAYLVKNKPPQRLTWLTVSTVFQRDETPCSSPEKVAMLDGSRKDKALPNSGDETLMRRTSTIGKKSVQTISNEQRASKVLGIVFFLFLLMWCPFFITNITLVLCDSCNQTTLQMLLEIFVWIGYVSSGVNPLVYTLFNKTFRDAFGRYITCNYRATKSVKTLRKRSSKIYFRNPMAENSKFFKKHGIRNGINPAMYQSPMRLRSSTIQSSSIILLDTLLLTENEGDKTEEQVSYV
Assay type: functional, cell-based
Would you mind telling me the reported AC50 of each entry?

What AC50 appears in the records for this compound with 5-hydroxytryptamine receptor 2B (Homo sapiens, UniProt P41595)? CC(C)Cc1ccc(CC(=O)O)cc1 [IBUFENAC] > 30 µM

Try the compound C#CC1(OC(N)=O)CCCCC1 [ETHINAMATE] > 10 µM

Try the compound CC(=O)OCC(=O)[C@@]1(O)CC[C@H]2[C@@H]3CCC4=CC(=O)CC[C@]4(C)[C@H]3C(=O)C[C@@]21C [CORTISONE ACETATE] > 30 µM

Try the compound C#CCN(C)[C@H](C)Cc1ccccc1 [SELEGILINE] > 10 µM

Try the compound Cc1cccc(C)c1NC(=O)C1CCCCN1C (stereo not given) [MEPIVACAINE] > 30 µM

Try the compound NC[C@H]1CC[C@H](C(=O)O)CC1 [TRANEXAMIC ACID] > 10 µM

Try the compound CN(C)[C@@H]1C(O)=C(C(N)=O)C(=O)[C@@]2(O)C(O)=C3C(=O)c4c(O)ccc(Cl)c4[C@@H](O)[C@H]3C[C@@H]12 [DEMECLOCYCLINE] > 10 µM

Try the compound CC(C(O)c1ccc(O)cc1)N1CCC(Cc2ccccc2)CC1 (stereo not given) [IFENPRODIL] > 30 µM

Try the compound NS(=O)(=O)c1cc2c(cc1Cl)NCNS2(=O)=O [HYDROCHLOROTHIAZIDE] > 10 µM

Try the compound N/N=c1/cc2c(n[nH]1)CCN(C(=O)c1ccccc1)C2 [ENDRALAZINE] > 30 µM

Try the compound COC(=O)C1=C(C)NC(C)=C(C(=O)OC)C1c1ccccc1[N+](=O)[O-] [NIFEDIPINE] > 10 µM

Try the compound COC(=O)[C@@H]1CC2=CC(=O)CC[C@]2(C)[C@@]23O[C@@H]2C[C@@]2(C)[C@@H](CC[C@@]24CCC(=O)O4)[C@H]13 [EPLERENONE] > 30 µM

Try the compound C[C@]12CCC(=O)C=C1CC[C@@H]1[C@@H]2CC[C@@]2(C)[C@H]1CC[C@]2(C)O [METHYLTESTOSTERONE] > 30 µM

Try the compound CC/C=C\C/C=C\C/C=C\CCCCCCCC(=O)O [LINOLENIC ACID] > 30 µM

Try the compound Nc1ncnc2c1ncn2[C@@H]1O[C@H](COP(=O)(O)O)[C@@H](O)[C@H]1O [ADENOSINE PHOSPHATE] > 30 µM

Try the compound CN(C)C(=O)OC1N=C(c2ccccc2)c2cc(Cl)ccc2N(C)C1=O (stereo not given) [CAMAZEPAM] > 10 µM

Try the compound CCCCCOC(=O)Nc1nc(=O)n([C@@H]2O[C@H](C)[C@@H](O)[C@H]2O)cc1F [CAPECITABINE] > 30 µM

Try the compound OCc1cc([C@@H](O)CNCCCCCCOCCOCc2c(Cl)cccc2Cl)ccc1O [VILANTEROL] > 30 µM

Try the compound CC[C@]1(O)C[C@@H]2CN(CCc3c([nH]c4ccccc34)[C@@](C(=O)OC)(c3cc4c(cc3OC)N(C)[C@H]3[C@@](O)(C(N)=O)[C@H](O)[C@]5(CC)C=CCN6CC[C@]43[C@@H]65)C2)C1 [VINDESINE] > 30 µM

Try the compound CN[C@@H]1[C@H](O)[C@H](NC)[C@H]2O[C@@]3(O)C(=O)C[C@@H](C)O[C@H]3O[C@@H]2[C@H]1O [SPECTINOMYCIN] > 30 µM

Try the compound CCC(C(=O)O)c1ccc(CC(C)C)cc1 (stereo not given) [BUTIBUFEN] > 30 µM

Try the compound COc1ccc2cccc(CCNC(C)=O)c2c1 [AGOMELATINE] > 30 µM

Try the compound COc1c(N2CCNC(C)C2)c(F)cc2c(=O)c(C(=O)O)cn(C3CC3)c12 (stereo not given) [GATIFLOXACIN] > 10 µM

Try the compound CCC[C@@H]1C[C@@H](C(=O)N[C@@H]([C@H]2O[C@H](SC)[C@H](O)[C@@H](O)[C@H]2O)[C@H](C)Cl)N(C)C1 [CLINDAMYCIN] > 10 µM

Try the compound CCc1nn(CCCN2CCN(c3cccc(Cl)c3)CC2)c(=O)n1CCOc1ccccc1 [NEFAZODONE] > 10 µM

Try the compound CC(C)NCC1CCc2cc(CO)c([N+](=O)[O-])cc2N1 (stereo not given) [OXAMNIQUINE] > 10 µM

Try the compound CCCC(CCC)C(=O)O[C@H]1C[C@H]2CC[C@@H](C1)[N+]2(C)C [ANISOTROPINE] > 30 µM

Try the compound NC(=O)c1ncn([C@@H]2O[C@H](CO)[C@@H](O)[C@H]2O)c1O [MIZORIBINE] > 30 µM

Try the compound CCN(CC)CCOC(=O)c1ccc(N)cc1 [PROCAINE] > 10 µM

Try the compound O=C1CN=C(c2ccccc2)c2cc(Cl)ccc2N1CC(F)(F)F [HALAZEPAM] > 30 µM

Try the compound C#C[C@]1(O)CC[C@H]2[C@@H]3CCc4cc(O)ccc4[C@H]3CC[C@@]21C [ETHINYL ESTRADIOL] > 10 µM

Try the compound CN1C(=O)CC(=O)N(c2ccccc2)c2cc(Cl)ccc21 [CLOBAZAM] > 10 µM

Try the compound CC(C(=O)O)c1ccc(N2CC=CC2)c(Cl)c1 (stereo not given) [PIRPROFEN] > 10 µM

Try the compound CCc1ccc(CCOc2ccc(CC3SC(=O)NC3=O)cc2)nc1 (stereo not given) [PIOGLITAZONE] > 10 µM

Try the compound CN1CCC2=C(C1)C(c1ccccc1)c1ccccc12 (stereo not given) [PHENINDAMINE] > 10 µM

# credit: ChEMBL document CHEMBL5291721
